// values below are reported melting point

Answered examples (5):
[[record]]
molecule = "CC[C@H](N)C(=O)C1c2c(ccc3ccccc23)N[C@@H]1C(=O)NCC(F)(F)F.O=C(O)C(F)(F)F (some centres unmarked)"
measurement_name = "melting point"
recorded_result = "64 to 78 °C"

[[record]]
molecule = "CC[C@H](N)C(=O)N1c2cccc(OC)c2C[C@H]1C(=O)NCC(F)(F)F.O=C(O)C(F)(F)F"
measurement_name = "melting point"
recorded_result = "125 to 149 °C"

[[record]]
molecule = "CC[C@H](N)C(=O)N1c2ccccc2C[C@H]1C(=O)NCCSC.O=C(O)C(F)(F)F"
measurement_name = "melting point"
recorded_result = "59.5 to 60.5 °C"

[[record]]
molecule = "CCCCNC(=O)[C@H]1Nc2ccc3ccccc3c2C1C(=O)[C@@H](N)CC.O=C(O)C(F)(F)F (some centres unmarked)"
measurement_name = "melting point"
recorded_result = "76 to 88 °C"

[[record]]
molecule = "CC[C@H](N)C(=O)N1c2ccc(Cl)cc2C[C@H]1C(=O)NCCCl.O=C(O)C(F)(F)F"
measurement_name = "melting point"
recorded_result = "80 to 88 °C"


Incoming: Form field: reported melting point of "CC[C@H](N)C(=O)N1c2ccccc2C[C@H]1C(=O)NCC1CC1.O=C(O)C(F)(F)F"
Outgoing: 57 to 74 °C

Incoming: Form field: reported melting point of CC[C@H](N)C(=O)N1c2cccc(Cl)c2CC1C(=O)NCC(F)(F)F.O=C(O)C(F)(F)F (mixture of isomers)
Outgoing: 104 to 106 °C

Incoming: Form field: reported melting point of CC[C@H](N)C(=O)N1c2ccc3c(c2CC1C(=O)NCC(F)(F)F)OCO3.O=C(O)C(F)(F)F (mixture of isomers)
Outgoing: 89 to 98 °C
